test: Inhibition of Yersinia Tyrosine-protein phosphatase yopH; set-up: species or system Yersinia sp.
Kindly state IC50 for each of the entries shown.
One number for each entry, in nM.

O=C(O)c1ccc(CN2C(=O)S/C(=C\c3ccc(Oc4ccccc4)cc3)C2=O)cc1 | 1000

Now for the compound whose IC50 we want.
Incoming: Entry O=C(O)c1ccc(CN2C(=O)S/C(=C\c3ccc(OCc4ccccc4)cc3)C2=O)cc1 : reported IC50 = ?
Outgoing: 300

* * *

Biological target: Low molecular weight phosphotyrosine protein phosphatase (Saccharomyces cerevisiae S288c, UniProt P40347)
Sequence (P40347 whole entry): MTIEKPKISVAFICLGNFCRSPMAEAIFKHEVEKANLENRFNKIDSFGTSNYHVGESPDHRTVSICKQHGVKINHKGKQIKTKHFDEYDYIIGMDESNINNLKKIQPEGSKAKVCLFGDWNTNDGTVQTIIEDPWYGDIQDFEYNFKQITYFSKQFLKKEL
outcome_measure: pIC50
Answers are plain numbers, as −log10 of the molar value.

As a guide, the following entries are already answered.
O=C(O)c1ccc(CN2C(=O)S/C(=C\c3cccc4ccccc34)C2=O)cc1 | 4.00
COc1cc(/C=C2\SC(=O)N(Cc3ccc(C(=O)O)cc3)C2=O)ccc1O | 3.41
O=C(O)c1ccc(CN2C(=O)S/C(=C\c3cccc(Oc4ccccc4)c3)C2=O)cc1 | 3.32

Incoming: Given the compound O=C(O)c1ccc(CN2C(=O)S/C(=C\c3cccc(OCc4ccccc4)c3)C2=O)cc1 , what is its reported pIC50?
Outgoing: 4.71

* * *

Sequence of the target: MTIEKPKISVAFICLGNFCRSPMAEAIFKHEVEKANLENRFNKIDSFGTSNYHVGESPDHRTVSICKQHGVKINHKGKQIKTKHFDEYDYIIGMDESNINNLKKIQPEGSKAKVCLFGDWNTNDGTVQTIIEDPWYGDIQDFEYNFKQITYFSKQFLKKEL
For each record, check the reported IC50: if it is below 100 µM write True, else write False.

Worked examples follow.
O=C(O)c1ccc(CN2C(=O)S/C(=C\c3ccc(O)cc3)C2=O)cc1 | False
O=C(O)c1ccc(CN2C(=O)S/C(=C\c3cccc(O)c3)C2=O)cc1 | False
O=C(O)c1ccc(CN2C(=O)S/C(=C\c3ccc4ccccc4c3)C2=O)cc1 | False

Incoming: Hello, I'm reviewing records and need to know if IC50 of O=C(O)c1ccc(CN2C(=O)S/C(=C\c3ccc(Oc4ccccc4)cc3)C2=O)cc1 is below 100 µM. Could you check?
Outgoing: True

Incoming: Determine whether this compound shows IC50 lower than 100 µM (ties excluded): O=C(O)c1ccc(CN2C(=O)S/C(=C\c3ccc(OCc4ccccc4)cc3)C2=O)cc1
Outgoing: True

* * *

target: Receptor-type tyrosine-protein phosphatase beta (Homo sapiens); experiment: Inhibition of human protein-tyrosine phosphatase beta
Sequence (P23467 whole entry): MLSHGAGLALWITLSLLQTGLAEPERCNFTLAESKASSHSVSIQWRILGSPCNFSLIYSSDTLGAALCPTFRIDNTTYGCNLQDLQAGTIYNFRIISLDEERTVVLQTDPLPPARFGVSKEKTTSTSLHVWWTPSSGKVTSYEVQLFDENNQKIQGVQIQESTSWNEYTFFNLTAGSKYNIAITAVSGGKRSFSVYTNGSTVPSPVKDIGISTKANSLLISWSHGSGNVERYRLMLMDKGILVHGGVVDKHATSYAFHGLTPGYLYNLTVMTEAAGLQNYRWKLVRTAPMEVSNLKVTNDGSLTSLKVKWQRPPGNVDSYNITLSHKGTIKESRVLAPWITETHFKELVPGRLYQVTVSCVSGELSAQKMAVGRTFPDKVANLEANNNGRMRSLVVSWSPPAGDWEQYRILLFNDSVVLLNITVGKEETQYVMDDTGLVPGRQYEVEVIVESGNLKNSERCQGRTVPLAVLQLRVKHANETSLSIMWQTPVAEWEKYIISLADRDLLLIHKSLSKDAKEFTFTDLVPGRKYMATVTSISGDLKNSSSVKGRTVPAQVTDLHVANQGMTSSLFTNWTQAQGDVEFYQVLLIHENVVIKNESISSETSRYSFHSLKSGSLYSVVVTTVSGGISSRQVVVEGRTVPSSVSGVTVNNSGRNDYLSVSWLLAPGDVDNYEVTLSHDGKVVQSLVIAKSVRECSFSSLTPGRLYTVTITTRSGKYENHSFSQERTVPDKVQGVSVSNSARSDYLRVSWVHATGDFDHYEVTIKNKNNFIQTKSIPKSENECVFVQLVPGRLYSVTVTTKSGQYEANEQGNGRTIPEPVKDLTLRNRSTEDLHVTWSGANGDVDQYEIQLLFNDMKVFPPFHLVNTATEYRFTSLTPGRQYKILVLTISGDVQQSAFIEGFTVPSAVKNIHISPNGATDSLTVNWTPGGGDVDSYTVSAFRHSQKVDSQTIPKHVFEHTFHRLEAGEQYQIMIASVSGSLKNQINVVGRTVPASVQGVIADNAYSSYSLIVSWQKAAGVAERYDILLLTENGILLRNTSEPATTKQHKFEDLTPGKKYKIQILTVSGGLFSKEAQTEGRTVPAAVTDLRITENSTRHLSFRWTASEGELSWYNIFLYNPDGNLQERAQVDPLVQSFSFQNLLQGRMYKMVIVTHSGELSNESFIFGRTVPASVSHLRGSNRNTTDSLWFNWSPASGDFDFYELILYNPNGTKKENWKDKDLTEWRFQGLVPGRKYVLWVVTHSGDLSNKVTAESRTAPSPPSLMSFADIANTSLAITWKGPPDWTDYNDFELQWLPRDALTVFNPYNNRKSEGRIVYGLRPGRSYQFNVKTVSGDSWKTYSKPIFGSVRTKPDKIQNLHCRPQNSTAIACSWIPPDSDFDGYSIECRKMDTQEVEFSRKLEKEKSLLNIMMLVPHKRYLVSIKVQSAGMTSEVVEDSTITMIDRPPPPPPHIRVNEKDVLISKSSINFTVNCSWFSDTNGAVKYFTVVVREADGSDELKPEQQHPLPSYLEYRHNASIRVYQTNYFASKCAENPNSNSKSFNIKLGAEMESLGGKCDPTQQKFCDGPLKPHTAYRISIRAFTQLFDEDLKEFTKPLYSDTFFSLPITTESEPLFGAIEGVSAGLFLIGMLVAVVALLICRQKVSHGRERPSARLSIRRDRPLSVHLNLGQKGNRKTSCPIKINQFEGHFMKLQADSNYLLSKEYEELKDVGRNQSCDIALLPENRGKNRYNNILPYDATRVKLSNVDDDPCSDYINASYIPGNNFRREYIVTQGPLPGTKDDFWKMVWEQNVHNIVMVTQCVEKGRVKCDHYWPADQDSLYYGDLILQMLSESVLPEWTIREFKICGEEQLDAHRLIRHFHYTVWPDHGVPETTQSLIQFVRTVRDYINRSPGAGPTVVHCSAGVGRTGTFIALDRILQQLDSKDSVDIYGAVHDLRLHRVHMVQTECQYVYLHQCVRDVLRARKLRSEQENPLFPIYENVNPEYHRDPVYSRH
outcome_measure: IC50
Mention the unit after the number when you answer.

O=C(O)c1ccc(CN2C(=O)S/C(=C\c3ccc(Oc4ccccc4)cc3)C2=O)cc1 | 1100 nM

// moving on: another record for IC50
Incoming: So what IC50 did O=C(O)c1ccc(CN2C(=O)S/C(=C\c3ccc(OCc4ccccc4)cc3)C2=O)cc1 get with Receptor-type tyrosine-protein phosphatase beta (Homo sapiens)?
Outgoing: 400 nM

* * *

target: Low molecular weight phosphotyrosine protein phosphatase (Homo sapiens); assay: Inhibition of human low molecular weight Protein-tyrosine phosphatase IF2
Sequence (P24666 whole entry): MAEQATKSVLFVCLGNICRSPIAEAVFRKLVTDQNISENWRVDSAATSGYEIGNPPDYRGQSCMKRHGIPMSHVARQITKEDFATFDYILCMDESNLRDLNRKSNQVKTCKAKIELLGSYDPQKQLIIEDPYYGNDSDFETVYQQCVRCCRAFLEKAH
pIC50: −log10 of the molar value.
Class definitions on pIC50: bottom = under 4, middle = from 4 up to 5, top = 5 and over

Reference set (4 entries):
O=C(O)c1ccc(CN2C(=O)S/C(=C\c3ccc(OCc4ccccc4)cc3)C2=O)cc1 | top
COc1cc(/C=C2\SC(=O)N(Cc3ccc(C(=O)O)cc3)C2=O)ccc1O | middle
O=C(O)c1ccc(CN2C(=O)S/C(=C\c3cccc4ccccc34)C2=O)cc1 | bottom
O=C(O)c1ccc(CN2C(=O)S/C(=C\c3cccc(OCc4ccccc4)c3)C2=O)cc1 | middle

Shifting focus to the compound that follows.
Incoming: Into which category would you place O=C(O)COc1ccc(/C=C2\SC(=O)N(Cc3ccc(C(=O)O)cc3)C2=O)cc1 ?
Outgoing: bottom

Cited source for all entries: ChEMBL document CHEMBL1149603
